B1: Intersectin-1, residues 1156 to 1213; numbered along this chain, Q15811 (parent)
chain: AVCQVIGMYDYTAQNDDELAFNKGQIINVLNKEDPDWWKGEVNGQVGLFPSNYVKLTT

# Variants of: B1
# protocol.details: abundance fitness (aPCA) (normalised: wild type 0, dead -1); higher = more abundant; growth selection in yeast, the domain comes from the species named
# test.conditions: Homo sapiens
Would you mind labelling by abundance fitness? At or over -0.4 is yes (1), under is no (0).

                              sequence_code    label
0  AHCQVIGMYDYTAQNDDELAFNKGQIINVLNKEDPDWWKGEVNGQVGLFPSNYVKLTT [V2H]  yes (1)

Task item: Does the variant AVCQVIGMYDYTAQNDDELAFNKGQIINVLNKEDPDWWKGEVNGQVCLFPSNYVKLTT [G47C] have recorded abundance fitness that is -0.4 or more?
Reply: no (0)

Task item: Does the variant AVCQVIGMYDYTAQNDDELAFNKGQIINVLNKEDPDWWKGEVNGQVGLSPSNYVKLTT [F49S] have recorded abundance fitness that is -0.4 or more?
Reply: no (0)

Task item: Does the variant AVCQVIGMYDYTAQNDDELAFNKGQRINVLNKEDPDWWKGEVNGQVGLFPSNYVKLTT [I26R] have recorded abundance fitness that is -0.4 or more?
Reply: yes (1)

Task item: Does the variant AVCQVIGMYDYTAQNDDELAFNKGQIINVLNKEDPDWWKGEVNGQVGLFLSNYVKLTT [P50L] have recorded abundance fitness that is -0.4 or more?
Reply: no (0)

Task item: Does the variant AVCQVIGMYDYTAQNDDELAFNKGQIINVLNKEDPDWWKGEVEGQVGLFPSNYVKLTT [N43E] have recorded abundance fitness that is -0.4 or more?
Reply: yes (1)

Task item: Does the variant AVCQVIGMYDYTADNDDELAFNKGQIINVLNKEDPDWWKGEVNGQVGLFPSNYVKLTT [Q14D] have recorded abundance fitness that is -0.4 or more?
Reply: yes (1)

Task item: Does the variant AVCQVIGMYDYTAQNDCELAFNKGQIINVLNKEDPDWWKGEVNGQVGLFPSNYVKLTT [D17C] have recorded abundance fitness that is -0.4 or more?
Reply: yes (1)

Task item: Does the variant AVCQVIGMYDYTAQNDDELAFNKGQIIRVLNKEDPDWWKGEVNGQVGLFPSNYVKLTT [N28R] have recorded abundance fitness that is -0.4 or more?
Reply: yes (1)

Task item: Does the variant AVCCVIGMYDYTAQNDDELAFNKGQIINVLNKEDPDWWKGEVNGQVGLFPSNYVKLTT [Q4C] have recorded abundance fitness that is -0.4 or more?
Reply: no (0)

Task item: Does the variant AVCQVIGMYDYTAQNDDELAFNKGQIINVLNKEDPDWWKIEVNGQVGLFPSNYVKLTT [G40I] have recorded abundance fitness that is -0.4 or more?
Reply: no (0)

Task item: Does the variant AVCQVIGMYDYTAQNDDELAFNKGQIINVLNKWDPDWWKGEVNGQVGLFPSNYVKLTT [E33W] have recorded abundance fitness that is -0.4 or more?
Reply: no (0)

Task item: Does the variant AVCQVIGMYDYRAQNDDELAFNKGQIINVLNKEDPDWWKGEVNGQVGLFPSNYVKLTT [T12R] have recorded abundance fitness that is -0.4 or more?
Reply: yes (1)

Task item: Does the variant AVCQVIGMYDYTACNDDELAFNKGQIINVLNKEDPDWWKGEVNGQVGLFPSNYVKLTT [Q14C] have recorded abundance fitness that is -0.4 or more?
Reply: no (0)

Task item: Does the variant AVCQVIGMYDYTAQNDDELAFNKGQIINVLNKEDPDWHKGEVNGQVGLFPSNYVKLTT [W38H] have recorded abundance fitness that is -0.4 or more?
Reply: no (0)

Task item: Does the variant AVCQVIGMPDYTAQNDDELAFNKGQIINVLNKEDPDWWKGEVNGQVGLFPSNYVKLTT [Y9P] have recorded abundance fitness that is -0.4 or more?
Reply: no (0)

Task item: Does the variant AVCQVIGMYDYTAQNDDELAFNKGQIINVLNKEDPDWWKGEVNGQVGLFPNNYVKLTT [S51N] have recorded abundance fitness that is -0.4 or more?
Reply: no (0)
